# measurement target: follicle-stimulating hormone (FSH) receptor (Rattus norvegicus)
# Construct: Rat Granulosa EC50 FSH (Assay B); endogenous in cells
# Sequence (P20395 18-692): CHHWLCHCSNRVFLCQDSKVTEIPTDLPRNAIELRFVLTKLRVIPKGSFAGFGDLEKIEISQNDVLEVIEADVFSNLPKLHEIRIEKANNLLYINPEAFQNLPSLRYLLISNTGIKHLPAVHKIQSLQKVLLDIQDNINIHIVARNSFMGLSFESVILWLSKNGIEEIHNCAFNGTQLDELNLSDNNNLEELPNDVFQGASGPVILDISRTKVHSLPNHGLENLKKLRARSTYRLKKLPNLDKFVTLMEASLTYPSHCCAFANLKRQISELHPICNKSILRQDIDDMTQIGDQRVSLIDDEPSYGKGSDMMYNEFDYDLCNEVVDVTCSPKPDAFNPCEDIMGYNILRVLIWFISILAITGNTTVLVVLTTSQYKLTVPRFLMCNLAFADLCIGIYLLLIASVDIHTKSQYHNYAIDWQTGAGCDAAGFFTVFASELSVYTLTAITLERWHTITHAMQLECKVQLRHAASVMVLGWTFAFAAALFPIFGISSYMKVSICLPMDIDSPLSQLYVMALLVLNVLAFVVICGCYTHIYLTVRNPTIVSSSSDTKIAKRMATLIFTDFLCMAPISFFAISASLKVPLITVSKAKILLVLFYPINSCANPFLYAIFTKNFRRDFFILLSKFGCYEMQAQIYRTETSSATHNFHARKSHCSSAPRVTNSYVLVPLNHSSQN
# method summary: Rat Granulosa EC50 FSH (Assay B)
# run parameters: rat granulosa cells, per Yanofsky et al. 2006
Below: a set of entries, each annotated with reported EC50.

Some entries whose results are on file:
                                        smi  test_result
0  COc1cc2c(cc1OC(C)C)-n1c(-c3cccs3)nc(C(=O)N(C)C(C)(C)C)c1CC2       > 5 µM
1  COc1cc2c(cc1OC(C)C)-n1c(-c3cccs3)nc(C(=O)N3CCCN(C(=O)C4CCC4)CC3)c1CC2  0.1 to 1 µM
2  COc1cc2c(cc1CC(C)C)-n1c(S(=O)(=O)C3CC3)nc(C(=O)N(C)C(C)(C)C)c1CC2    1 to 5 µM
3  COc1cc2c(cc1OC(C)C)-n1c(-c3cccc(Cl)c3)nc(C(=O)N3CCOCC3(C)C)c1CC2       > 5 µM

Now, please, on to the next compound.
For reference, reported EC50 for `[2H]C([2H])([2H])N(CCN(C(=O)c1nc(-c2cccs2)n2c1CCc1cc(OC)c(CC(C)C)cc1-2)C([2H])([2H])[2H])C(C)=O` stands at > 5 µM
